In this section we review reported MIC values for a set of compounds.
- Test system: Staphylococcus aureus ATCC 29213 (MSSA)
- assay_comment: Broth microdilution MIC, S. aureus ATCC 29213 (MSSA)
- Assay type: cell-based
- particulars: 20 h, read-out: MIC S. aureus ATCC 29213 (MSSA)
- From the text: Bacteria tested are Staphylococcus aureus NRS384 (a methicillin-resistant Staphylococcus aureus, MRSA), Staphylococcus aureus ATCC 29213 (a methicillin-sensitive Staphylococcus aureus, MSSA), Streptococcus pneumoniae ATCC 49619, Enterococcus faecalis ATCC 29212, Enterococcus faecium ATCC 700221 (a vancomycin-resistant enterococcus, VRE), Bacillus subtilis ATCC 6633, and Escherichia coli ATCC 25922. […]
Structures can show the parent of a compound that is named as a salt.

{"compound": "O=c1[nH]c(NCc2ccc(Cl)c(Cl)c2)nc2cn(C3CCNC3)nc12 (stereo not drawn) [Compound 215, TFA salt]", "MIC": "> 64 µg/mL"}
{"compound": "CC(C)(C)OC(=O)NCCOCCn1ncc2nc(NCc3ccc(Cl)c(Cl)c3)[nH]c(=O)c21 [Compound 100]", "MIC": "> 64 µg/mL"}

*Q* MIC for COP(=O)(O)OCCOCCn1ncc2nc(NCc3ccc(Cl)c(Cl)c3)[nH]c(=O)c21 [Compound 298] ?
*A* > 64 µg/mL

###

- Test system: Enterococcus faecium ATCC 700221 (VRE)
- assay_comment: Broth microdilution MIC, E. faecium ATCC 700221 (VRE)
- Type: cell-based
- particulars: Enterococcus faecium; broth microdilution, 37° C., 20 hours; read-out: MIC E. faecium ATCC 700221 (VRE)
Mark class 1 only when MIC stays strictly below 8 µg/mL. Values equal to the cut-off are class 0.

*Q* Please state whether MIC is below 8 µg/mL for "COCCOCn1ncc2nc(NCc3ccc(Cl)c(Cl)c3)[nH]c(=O)c21"
*A* class 1

*Q* Please state whether MIC is below 8 µg/mL for "COCCOC/C=C/Cn1ncc2nc(NCc3ccc(Cl)c(Cl)c3)[nH]c(=O)c21"
*A* class 1

*Q* Please state whether MIC is below 8 µg/mL for "COCCOCCn1cc2nc(NCc3ccc(Cl)c(Cl)c3)[nH]c(=O)c2n1"
*A* class 0

*Q* Please state whether MIC is below 8 µg/mL for CC(CO)n1cc2nc(NCc3ccc(Cl)c(Cl)c3)[nH]c(=O)c2n1 (stereo not drawn)
*A* class 0

*Q* Please state whether MIC is below 8 µg/mL for "Cl.O=C(c1ccccn1)N1CCC(n2ncc3nc(NCc4ccc(Cl)c(Cl)c4)[nH]c(=O)c32)CC1"
*A* class 1

###

In this section we review reported MIC values for a set of molecules.
- System: Enterococcus faecalis ATCC 29212
- assay_comment: Broth microdilution MIC, E. faecalis ATCC 29212
- Assay type: cell-based
- particulars: ATCC29212, broth microdilution, 37° C., 20 hours, read-out: MIC E. faecalis ATCC 29212
Hi! Could you send only the number? It should be in µg/mL, unit omitted.

Before answering, review these 10 worked examples.
{"molecule": "O=c1[nH]c(NCc2ccc(Cl)c(Cl)c2)nc2cnn(CC3CCCO3)c12 (stereo not shown) [Compound 102]", "target_under_test": "Enterococcus faecalis ATCC 29212", "units_of_measure": "µg/mL", "MIC": 4}
{"molecule": "C[C@H](O)Cn1ncc2nc(NCc3ccc(Cl)c(Cl)c3)[nH]c(=O)c21 [Compound 240]", "target_under_test": "Enterococcus faecalis ATCC 29212", "units_of_measure": "µg/mL", "MIC": 8}
{"molecule": "O=c1[nH]c(NCc2ccc(Cl)c(Cl)c2)nc2cnn(Cc3cocn3)c12 [Compound 92]", "target_under_test": "Enterococcus faecalis ATCC 29212", "units_of_measure": "µg/mL", "MIC": 4}
{"molecule": "COc1cccnc1C(=O)N1CCC(n2ncc3nc(NCc4ccc(Cl)c(Cl)c4)[nH]c(=O)c32)CC1.Cl [Compound 268]", "target_under_test": "Enterococcus faecalis ATCC 29212", "units_of_measure": "µg/mL", "MIC": 8}
{"molecule": "O=c1[nH]c(NCc2ccc(Cl)c(Cl)c2)nc2cnn(CCOCCO)c12 [Compound 88]", "target_under_test": "Enterococcus faecalis ATCC 29212", "units_of_measure": "µg/mL", "MIC": 4}
{"molecule": "Cl.O=C(c1cn[nH]n1)N1CCC(n2ncc3nc(NCc4ccc(Cl)c(Cl)c4)[nH]c(=O)c32)CC1 [Compound 272]", "target_under_test": "Enterococcus faecalis ATCC 29212", "units_of_measure": "µg/mL", "MIC": 4}
{"molecule": "Cl.O=C(c1ccccn1)N1CCC(n2ncc3nc(NCc4ccc(Cl)c(Cl)c4)[nH]c(=O)c32)C1 (stereo not shown) [Compound 257]", "target_under_test": "Enterococcus faecalis ATCC 29212", "units_of_measure": "µg/mL", "MIC": 8}
{"molecule": "COCCN1CCC(n2ncc3nc(NCc4ccc(Cl)c(Cl)c4)[nH]c(=O)c32)CC1.Cl [Compound 157]", "target_under_test": "Enterococcus faecalis ATCC 29212", "units_of_measure": "µg/mL", "MIC": 8}
{"molecule": "CC(=O)N1CCN(CCn2ncc3nc(NCc4ccc(Cl)c(Cl)c4)[nH]c(=O)c32)CC1.Cl [Compound 64]", "target_under_test": "Enterococcus faecalis ATCC 29212", "units_of_measure": "µg/mL", "MIC": 4}
{"molecule": "O=c1[nH]c(NCc2ccc(Cl)c(Cl)c2)nc2c(F)n[nH]c12 [Compound 54]", "target_under_test": "Enterococcus faecalis ATCC 29212", "units_of_measure": "µg/mL", "MIC": 16}

*Q* MIC for CC(C)(C)NCCn1ncc2nc(NCc3ccc(Cl)c(Cl)c3)[nH]c(=O)c21 [Compound 62] ?
*A* 8

*Q* MIC for Cl.O=c1[nH]c(NCc2ccc(Cl)c(Cl)c2)nc2cnn(CCOCc3cccnc3)c12 [Compound 181] ?
*A* 8

*Q* MIC for O=c1[nH]c(NCc2ccc(Cl)c(Cl)c2)nc2c(Cl)nn(CCOCCO)c12 [Compound 303] ?
*A* 2

*Q* MIC for O=C([C@@H](O)[C@H](O)CO)N1CCC(n2ncc3nc(NCc4ccc(Cl)c(Cl)c4)[nH]c(=O)c32)CC1 [Compound 276] ?
*A* 64

*Q* MIC for Cl.O=C(c1ccccn1)N1CCC(n2ncc3nc(NCc4ccc(Cl)c(Cl)c4)[nH]c(=O)c32)CC1 [Compound 255] ?
*A* 4

*Q* MIC for Cl.O=c1[nH]c(NCc2ccc(Cl)c(Cl)c2)nc2cnn(CC3C(O)C4CCN3CC4)c12 (stereo not shown) [Compound 236] ?
*A* 64
